- MEASURED ON: ECF26_4464
QUANTITY NAME: fold repression
Would you mind answering with just the numeric figure?

Ask: May I ask what fold repression has been recorded for AS14_1324 (protein) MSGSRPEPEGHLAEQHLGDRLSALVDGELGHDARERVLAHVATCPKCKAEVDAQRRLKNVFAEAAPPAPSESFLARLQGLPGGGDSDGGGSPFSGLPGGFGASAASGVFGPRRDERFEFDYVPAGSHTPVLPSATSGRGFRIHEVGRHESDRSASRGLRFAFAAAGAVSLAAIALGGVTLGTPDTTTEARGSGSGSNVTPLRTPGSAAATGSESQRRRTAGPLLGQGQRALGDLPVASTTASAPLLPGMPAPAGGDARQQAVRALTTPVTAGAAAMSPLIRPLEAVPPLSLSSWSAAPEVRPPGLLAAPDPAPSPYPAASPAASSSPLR ?
Reply: 15.9

Every entry's value here was drawn from paper PMC3817407.
